# Tested on: HCV 1b_Huh-Luc/Neo-ET cell line persistently expressing a bicistronic genotype 1b replicon in Huh 7 cells
# ASSAY_PROCEDURE: HCV replicon assay (luciferase readout)
# Format: cell-based
# MEASUREMENT_CONDITIONS: Hepatitis C virus, Huh-7, 72 h, read-out: Inhibition of HCV genotype 1b
pEC50: −log10 of the molar value.
READOUT: pEC50

SMILES_ENTRY | READOUT | MEASURED
COC(=O)N[C@H](C(=O)N1C[C@H](F)C[C@H]1c1ncc(-c2ccc(C#Cc3ccc4nc([C@@H]5CCCN5C(=O)[C@@H](NC(=O)OC)C(C)C)[nH]c4c3)cc2)[nH]1)C(C)C | pEC50 | > 9.00
COC(=O)N[C@H](C(=O)N1CCC[C@H]1c1ncc(-c2ccc(C#Cc3ccc4nc([C@@H]5CCCN5C(=O)[C@@H](NC(=O)OC)[C@@H](C)OC)[nH]c4c3)cc2)[nH]1)[C@@H](C)OC | pEC50 | > 9.00
COC(=O)N[C@H](C(=O)N1CCC[C@H]1c1ncc(-c2ccc(C#Cc3ccc4c(ccc5nc([C@@H]6CCCN6C(=O)[C@@H](NC(=O)OC)C(C)C)[nH]c54)c3)cc2)[nH]1)C(C)C | pEC50 | > 9.00

q: Dear colleague, I am looking for the recorded pEC50 of the following compound: "COC(=O)N[C@@H](C(=O)N1CCC[C@H]1c1ncc(-c2ccc(C#Cc3ccc(-c4cnc([C@@H]5CCCN5C(=O)Cc5cccnc5)[nH]4)cc3)cc2)[nH]1)c1ccccc1"
a: > 9.00

q: # get_value(readout='pEC50', item= "COC(=O)N[C@H](C(=O)N1CCC[C@H]1c1nc2ccc(C#Cc3ccc(-c4cnc([C@@H]5CCCN5)[nH]4)cc3)cc2[nH]1)C(C)C" )
a: 6.00 to 8.00
